# Tested on: iPSC-CMs, iPSC-ECs and HUVECs phenotypes
# test.details: ToxPi 2.0 integration of POD values and physicochemical descriptors
# Set-up: species or system human
# condition.notes: ToxPi-scaled (0-1) score; HUVECs, 24 h
Reported huvec.nma.24hr values for the following compounds.

compound: Clc1ccc(Cl)c(-c2c(Cl)ccc(Cl)c2Cl)c1Cl [(+)-PCB 136, 2,2′,3,3′,6,6′-hexachlorobiphenyl]
huvec.nma.24hr: 0.5111
//
compound: Clc1cc(Cl)c(-c2cc(Cl)c(Cl)cc2Cl)cc1Cl
huvec.nma.24hr: 0.5857
//
compound: Oc1ccc(O)c(-c2ccc(Cl)cc2)c1 [2',5'-diOH-PCB 3, 4-Chloro-2′,5′-dihydroxybiphenyl]
huvec.nma.24hr: 0.309
//
compound: Oc1cccc(-c2ccc(Cl)cc2)c1
huvec.nma.24hr: 1
//
compound: Clc1ccc(Cl)c(-c2cc(Cl)ccc2Cl)c1
huvec.nma.24hr: 0.3829
//
compound: Oc1ccc(-c2cccc(Cl)c2)cc1Cl
huvec.nma.24hr: 0.5884
//
compound: O=C1C=CC(=O)C(c2ccc(Cl)cc2)=C1
huvec.nma.24hr: 0.6676

meta.source: paper PMC7377239
